Tested on: Mus musculus
Assay: Anticonvulsant activity in albino CF1 mouse assessed as protection against subcutaneous metrazol-induced seizures at 100 mg/kg, ip measured after 0.5 hr
Format: functional, organism-based
Design: dose 100 mg/kg
Calls of active or inactive are those of the source. The rule behind the calls is not given here.
Would you mind answering with one of these outcomes? active, inactive

Query block: What did this assay record as the result for "O=C1NC(=O)[C@@H]2CCCN2[C@H]1c1cc(F)cc(F)c1" ?
Result block: active

Query block: What did this assay record as the result for O=C1NC(=O)[C@@H]2CCCN2[C@H]1c1c(F)cccc1F (mixture of isomers) ?
Result block: inactive

Query block: What did this assay record as the result for "O=C1NC(=O)[C@@H]2CCCN2[C@H]1c1ccccc1C(F)(F)F" ?
Result block: inactive

Query block: What did this assay record as the result for "O=C1NC(=O)[C@@H]2CCCN2[C@H]1c1ccc(F)cc1" ?
Result block: inactive

Query block: What did this assay record as the result for "O=C1NC(=O)[C@@H]2CCCN2[C@H]1c1ccc(C(F)(F)F)cc1" ?
Result block: active

* * *

Assignment: determine reported TD50 for the given compounds.
Assay: Neurotoxicity in ip dosed albino CF1 mouse
Type: toxicity, organism-based
Settings: in vivo

Sample "O=C1NC(=O)[C@@H]2CCCN2[C@H]1c1cccc(OC(F)(F)F)c1" ; TD50 observed: 252 µmol/kg

Sample CCC1(c2ccccc2)C(=O)NC(=O)NC1=O [PHENOBARBITAL] ; TD50 observed: 297 µmol/kg

Sample COC[C@@H](NC(C)=O)C(=O)NCc1ccccc1 [LACOSAMIDE] ; TD50 observed: 107 µmol/kg

Sample "Cl.O=C1NC(=O)[C@@H]2CCCN2[C@H]1c1cccc(C(F)(F)F)c1" ; TD50 observed: 269 µmol/kg

Sample CCC1(C)CC(=O)NC1=O (stereo not given) [ETHOSUXIMIDE] ; TD50 observed: 2420 µmol/kg

* * *

Test system: Mus musculus
Test: Anticonvulsant activity in albino CF1 mouse assessed as protection against maximal electroshock-induced seizures at 100 mg/kg, ip measured after 1 hr
Type: functional, organism-based
Parameters: dose 100 mg/kg
Calls of active or inactive are those of the source. No cut-off for these calls is given here.
Would you mind answering with one of these outcomes? active, inactive

Query block: What did this assay record as the result for "O=C1NC(=O)[C@H](c2cccc(C(F)(F)F)c2)N2CCC[C@H]12" ?
Result block: inactive

Query block: What did this assay record as the result for "O=C1NC(=O)[C@@H]2CCCN2[C@H]1c1ccccc1C(F)(F)F" ?
Result block: inactive

Query block: What did this assay record as the result for "O=C1NC(=O)[C@@H]2CCCCN2[C@H]1c1cccc(C(F)(F)F)c1" ?
Result block: inactive

Query block: What did this assay record as the result for "O=C1NC(=O)[C@@H]2CCCN2[C@H]1c1cccc(F)c1" ?
Result block: inactive

Query block: What did this assay record as the result for O=C1NC(=O)[C@@H]2CCCN2[C@H]1c1c(F)cccc1F (mixture of isomers) ?
Result block: inactive

Query block: What did this assay record as the result for O=C1NC(=O)[C@@H]2CCCN2[C@H]1c1c(F)cccc1Cl (mixture of isomers) ?
Result block: inactive

Query block: What did this assay record as the result for "Cl.O=C1NC(=O)[C@@H]2CCCN2[C@H]1c1cccc(C(F)(F)F)c1" ?
Result block: active

Query block: What did this assay record as the result for "O=C1NC(=O)[C@H](c2cccc(C(F)(F)F)c2)N2CCCC[C@H]12" ?
Result block: inactive

Query block: What did this assay record as the result for "O=C1NC(=O)[C@@H]2CCCN2[C@H]1c1ccccc1F" ?
Result block: inactive

* * *

Assay: Neurotoxicity in ip dosed albino CF1 mouse measured at 0.25 hr post dose
Type: toxicity, organism-based
Settings: in vivo
MEASURED ENDPOINT: TD50 at 0.25 h (µmol/kg)
Give your result in µmol/kg as a bare value.

Sample "Cl.O=C1NC(=O)[C@@H]2CCCN2[C@H]1c1cccc(C(F)(F)F)c1" ; TD50 at 0.25 h observed: 166

* * *

Tested on: Mus musculus
Assay: Anticonvulsant activity in albino CF1 mouse assessed as protection against 32 mA current-induced seizures at 100 mg/kg, ip measured after 0.5 hr
Assay type: functional, organism-based
Design: dose 100 mg/kg
The source made the active and inactive calls. The calls are words filed in the database; no cut-off is given here.
Would you mind answering with one of these outcomes? active, inactive

Query block: What did this assay record as the result for "O=C1NC(=O)[C@@H]2CCCCN2[C@H]1c1cccc(C(F)(F)F)c1" ?
Result block: active

Query block: What did this assay record as the result for "O=C1NC(=O)[C@@H]2CCCN2[C@H]1c1cccc(OC(F)(F)F)c1" ?
Result block: active

Query block: What did this assay record as the result for "O=C1NC(=O)[C@@H](c2cccc(C(F)(F)F)c2)N2CCCC[C@H]12" ?
Result block: active

Query block: What did this assay record as the result for "O=C1NC(=O)[C@@H]2CCCN2[C@H]1c1cccc(F)c1" ?
Result block: active

Query block: What did this assay record as the result for O=C1NC(=O)[C@@H]2CCCN2[C@H]1c1c(F)cccc1F (mixture of isomers) ?
Result block: inactive

Query block: What did this assay record as the result for "O=C1NC(=O)[C@@H]2CCCN2[C@H]1c1cc(F)cc(F)c1" ?
Result block: active

Query block: What did this assay record as the result for O=C1NC(=O)[C@@H]2CCCN2[C@H]1c1c(F)cccc1Cl (mixture of isomers) ?
Result block: inactive

Query block: What did this assay record as the result for "O=C1NC(=O)[C@H](c2cccc(C(F)(F)F)c2)N2CCC[C@H]12" ?
Result block: inactive

Query block: What did this assay record as the result for "O=C1NC(=O)[C@@H]2CCCN2[C@H]1c1ccc(C(F)(F)F)cc1" ?
Result block: active

Query block: What did this assay record as the result for "O=C1NC(=O)[C@@H]2CCCN2[C@H]1c1ccc(F)cc1" ?
Result block: inactive

Query block: What did this assay record as the result for Cl.O=C1NC(=O)[C@@H]2C[C@@H](O)CN2C1c1cccc(C(F)(F)F)c1 (mixture of isomers) ?
Result block: active

Query block: What did this assay record as the result for "Cl.O=C1NC(=O)[C@@H]2CCCN2[C@H]1c1cccc(C(F)(F)F)c1" ?
Result block: active

Query block: What did this assay record as the result for "O=C1NC(=O)[C@@H]2CCCN2[C@H]1c1ccccc1C(F)(F)F" ?
Result block: inactive

Query block: What did this assay record as the result for "Cl.O=C1NC(=O)[C@@H](c2cccc(C(F)(F)F)c2)N2CCC[C@H]12" ?
Result block: active

* * *

System: Rattus norvegicus
Assay: Anticonvulsant activity in Sprague-Dawley rat assessed as protection against maximal electroshock-induced seizures at 30 mg/kg, ip measured after 0.25 hr
Format: functional, organism-based
Set-up: dose 30 mg/kg
Activity calls are given as the source filed them. No cut-off for these calls is given here.
Would you mind answering with one of these outcomes? y for active, n for inactive

Query block: What did this assay record as the result for "O=C1NC(=O)[C@@H]2CCCN2[C@H]1c1cccc(OC(F)(F)F)c1" ?
Result block: y

Query block: What did this assay record as the result for "O=C1NC(=O)[C@@H]2CCCN2[C@H]1c1ccc(C(F)(F)F)cc1" ?
Result block: n

Query block: What did this assay record as the result for "O=C1NC(=O)[C@@H]2CCCN2[C@H]1c1ccccc1F" ?
Result block: n

Query block: What did this assay record as the result for Cl.O=C1NC(=O)[C@@H]2C[C@@H](O)CN2C1c1cccc(C(F)(F)F)c1 (mixture of isomers) ?
Result block: n

Query block: What did this assay record as the result for "O=C1NC(=O)[C@@H]2CCCCN2[C@H]1c1cccc(C(F)(F)F)c1" ?
Result block: n

Query block: What did this assay record as the result for "Cl.O=C1NC(=O)[C@@H]2CCCN2[C@H]1c1cccc(C(F)(F)F)c1" ?
Result block: n

Query block: What did this assay record as the result for "O=C1NC(=O)[C@@H](c2cccc(C(F)(F)F)c2)N2CCCC[C@H]12" ?
Result block: n

* * *

Test system: Mus musculus
Assay: Anticonvulsant activity in albino CF1 mouse assessed as protection against subcutaneous metrazol-induced seizures at 100 mg/kg, ip measured after 0.5 hr
Format: functional, organism-based
Design: dose 100 mg/kg
Calls of active or inactive are those of the source. The calls are words filed in the database; no cut-off is given here.

STRUCTURE STRING | SYSTEM NAME | Activity
O=C1NC(=O)[C@H](c2cccc(C(F)(F)F)c2)N2CCC[C@H]12 | Mus musculus | inactive
O=C1NC(=O)[C@@H]2CCCN2[C@H]1c1ccccc1F | Mus musculus | inactive
O=C1NC(=O)[C@@H](c2cccc(C(F)(F)F)c2)N2CCCC[C@H]12 | Mus musculus | inactive

* * *

Test system: Mus musculus
Assay: Anticonvulsant activity in ip dosed albino CF1 mouse assessed as protection against maximal electroshock-induced seizures
Type: functional
MEASURED ENDPOINT: ED50 (µmol/kg)
Give your result in µmol/kg as a bare value.

# "Cl.O=C1NC(=O)[C@@H]2CCCN2[C@H]1c1cccc(C(F)(F)F)c1" with Mus musculus: ED50 is 165

# "CCC1(c2ccccc2)C(=O)NC(=O)NC1=O" with Mus musculus: ED50 is 94

# COC[C@@H](NC(C)=O)C(=O)NCc1ccccc1 [LACOSAMIDE] with Mus musculus: ED50 is 18

# "O=C1NC(=O)[C@@H]2CCCN2[C@H]1c1cccc(OC(F)(F)F)c1" with Mus musculus: ED50 is 76
